All values here come from patent US12358899B2.

tested on: C57BL/6cnc mice; test: Cholesterol-lowering efficacy in high cholesterol diet-induced hypercholesterolemia mouse model; assay type: in vivo; settings: compound concentration at end of study, high cholesterol diet mice
readout-type: blood and liver distribution

[2H]c1c(Cl)c(Oc2cc(C(C([2H])([2H])[2H])C([2H])([2H])[2H])c(=O)[nH]n2)c(Cl)c([2H])c1-n1nc(C#N)c(=O)[nH]c1=O [Example 30] | similar
[2H]C([2H])([2H])C(c1cc(Oc2c(Cl)cc(-n3nc(C#N)c(=O)[nH]c3=O)cc2Cl)n[nH]c1=O)C([2H])([2H])[2H] [Example 7] | similar
[2H]c1c(C)c(Oc2cc(C(C([2H])([2H])[2H])C([2H])([2H])[2H])c(=O)[nH]n2)c(Cl)c([2H])c1-n1nc(C#N)c(=O)[nH]c1=O [Example 50] | similar
C[C@@H]1CCc2c(Oc3c(Cl)cc(-n4nc(C#N)c(=O)[nH]c4=O)cc3Cl)n[nH]c(=O)c21 (single isomer, unassigned) [Example 41] | similar
